Data origin, for the record: BigSolDB 2.1

# Details: in ethyl acetate, 303.15 K
Parameter: solubility (mole fraction)

[
  {
    "Smiles Str": "O=C(O)[C@@H]1CSCN1",
    "Quantitative Result": 0.000158
  }
]

----------
# Details: in acetonitrile, 293.15 K

[
  {
    "Smiles Str": "O=C(O)[C@@H]1CSCN1",
    "solubility (mole fraction)": "3e-05"
  }
]

----------
# Details: in acetone, 313.15 K

[
  {
    "Smiles Str": "O=C(O)[C@@H]1CSCN1",
    "solubility (mole fraction)": 0.00135
  }
]

----------
# Details: in methanol, 313.15 K

[
  {
    "Smiles Str": "O=C(O)[C@@H]1CSCN1",
    "solubility (mole fraction)": 0.000209
  }
]
